Biological target: GST-JAK2(808-1132) (Homo sapiens, UniProt O60674)
Construct: GST-JAK2(808-1132); purchased Invitrogen (Carlsbad, USA) #4288
Sequence (O60674 808-1132): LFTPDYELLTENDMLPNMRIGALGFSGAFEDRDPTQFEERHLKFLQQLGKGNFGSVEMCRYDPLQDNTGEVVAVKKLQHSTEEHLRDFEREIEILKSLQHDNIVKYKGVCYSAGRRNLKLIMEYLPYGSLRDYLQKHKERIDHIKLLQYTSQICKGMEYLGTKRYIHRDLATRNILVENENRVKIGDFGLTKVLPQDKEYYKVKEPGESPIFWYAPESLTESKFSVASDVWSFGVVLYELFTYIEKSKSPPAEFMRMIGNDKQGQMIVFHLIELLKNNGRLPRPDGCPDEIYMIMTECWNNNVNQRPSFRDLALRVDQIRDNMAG
Test: JAK2 kinase assay (Caliper mobility shift, LabChip 3000)
Format: biochemical
test.readout: IC50 (nM)
Kindly provide the numeric value in nM only, without the unit symbol.

# compound, units.label, val
rows = [
    ("COc1cc(Nc2ncc3ccn(-c4ccc(CC(=O)N5CCN(C)CC5)cc4)c3n2)ccc1F", "nM", 4.5),
    ("CN1CCN(C(=O)c2c(F)cc(-n3ccc4cnc(Nc5ccc(CN6CCS(=O)(=O)CC6)cc5)nc43)cc2F)CC1", "nM", 5.2),
    ("O=C(c1c(F)cc(-n2ccc3cnc(Nc4ccncc4)nc32)cc1F)N1CCOCC1", "nM", 7.3),
    ("Cc1ccc(Nc2ncc3ccn(-c4ccc(CN5CCOCC5)cc4)c3n2)cc1", "nM", 30),
]

Next compound, please.
So what IC50 did CN1CCN(C(=O)c2ccc(Nc3ncc4ccn(-c5ccc(S(C)(=O)=O)cc5)c4n3)cc2C(F)(F)F)CC1 get with GST-JAK2(808-1132) (Homo sapiens, UniProt O60674)? 3.7

* * *

Target: GST-JAK2(808-1132) (Homo sapiens)
Construct: GST-JAK2(808-1132); purchased Invitrogen (Carlsbad, USA) #4288
Assay: JAK2 kinase assay (Caliper mobility shift, LabChip 3000)
Type: biochemical
test.readout: pIC50
Entry type: numeric. Quantity: pIC50, the -log10 of concentration in molar units.

# example entries with known answers
# compound, pIC50
rows = [
    ("OC1CN(Cc2cc(Nc3ncc4ccn(-c5cc(F)c(CN6CCOCC6)c(F)c5)c4n3)ccc2Cl)C1 [Example 400]", 8.15),
    ("CC(C)Oc1ccc(Nc2ncc3ccn(-c4ccc(C(C)O)cc4)c3n2)cc1 (centres unmarked) [Example 114]", 8.23),
    ("CS(=O)(=O)c1ccc(-n2ccc3cnc(Nc4ccc(C(=O)N5CCNCC5)cc4)nc32)cc1 [Example 87]", 8.42),
    ("CN1CCN(Cc2ccc(Nc3ncc4ccn(-c5cc(F)c(C(=O)N6CCOCC6)c(F)c5)c4n3)cc2)CC1 [Example 205]", 8.30),
    ("COc1cc(Nc2ncc3ccn(-c4ccc(S(C)(=O)=O)cc4)c3n2)cc(OC)c1OC [Example 4]", 8.66),
]

Looking for the measured pIC50 of CN1CCN(C(=O)c2ccc(Nc3ncc4ccn(-c5ccc(S(C)(=O)=O)cc5)c4n3)cc2)CC1 [Example 28] , can you help? 8.40

Looking for the measured pIC50 of C[C@@H]1CN(c2ccc(Nc3ncc4ccn(-c5ccc(S(=O)(=O)NC(C)(C)C)cc5)c4n3)cn2)C[C@H](C)N1 [Example 351] , can you help? 8.37

* * *

Quick list: IC50 per entry.
Target: GST-JAK2(808-1132) (Homo sapiens)
Construct: GST-JAK2(808-1132); purchased Invitrogen (Carlsbad, USA) #4288
Experiment: JAK2 kinase assay (Caliper mobility shift, LabChip 3000)
Assay type: biochemical
Kindly provide the numeric value in nM only, without the unit symbol.

# example entries with known answers
# compound, units.label, IC50
records = [
    ("COc1ccc(Nc2ncc3ccn(-c4ccc(C(=O)NC(C)(C)C)cc4)c3n2)cc1OC [Example 7]", "nM", 6.2),
    ("C[C@@H]1CN(Cc2c(F)cc(-n3ccc4cnc(Nc5ccc(N6CCNCC6)nc5)nc43)cc2F)C[C@H](C)O1 [Example 454]", "nM", 4.5),
    ("O=C(c1ccc(-n2ccc3cnc(Nc4ccc(C(F)(F)F)nc4)nc32)cc1)N1CCOCC1 [Example 236]", "nM", 46),
]

Looking for the measured IC50 of C[C@@H]1CN[C@@H](C)CN1c1ccc(Nc2ncc3ccn(-c4ccc(S(=O)(=O)NC(C)(C)C)cc4)c3n2)cn1 (racemic) [Example 356] , can you help? 3.2
